- measured-target: HLA-A*31:01
- test-protocol: IEDB peptide-MHC binding, purified MHC/competitive/fluorescence; filed as Kd, often an IC50 or EC50 that approximates it; bounds were set here for any values at or beyond the usual limits of such assays
- condition-context: source organism: Escherichia coli E22
readout-name: Kd
# number then unit; no other words

HLA-A*31:01 assay, sequence "MFIIKYFKK" , recorded Kd = 0.246 µM

---

- measured-target: HLA-A*26:01
- test-protocol: IEDB peptide-MHC binding, purified MHC/direct/fluorescence; filed as Kd, often an IC50 or EC50 that approximates it; bounds were set here for any values at or beyond the usual limits of such assays
- condition-context: source organism: Cryptosporidium parvum Iowa II
readout-name: Kd

Form: sequence = "LPLESCFGV" ; Kd = ≥ 20 µM

// moving on: another record for Kd
Form: sequence = "MPMSMPIPM" ; Kd = ≥ 20 µM
